The origin of these recorded values is the supplement of paper PMC10065799.

SYSTEM UNDER TEST: EPHB1 (UniProt P54762)
Sequence (P54762 whole entry, looked up): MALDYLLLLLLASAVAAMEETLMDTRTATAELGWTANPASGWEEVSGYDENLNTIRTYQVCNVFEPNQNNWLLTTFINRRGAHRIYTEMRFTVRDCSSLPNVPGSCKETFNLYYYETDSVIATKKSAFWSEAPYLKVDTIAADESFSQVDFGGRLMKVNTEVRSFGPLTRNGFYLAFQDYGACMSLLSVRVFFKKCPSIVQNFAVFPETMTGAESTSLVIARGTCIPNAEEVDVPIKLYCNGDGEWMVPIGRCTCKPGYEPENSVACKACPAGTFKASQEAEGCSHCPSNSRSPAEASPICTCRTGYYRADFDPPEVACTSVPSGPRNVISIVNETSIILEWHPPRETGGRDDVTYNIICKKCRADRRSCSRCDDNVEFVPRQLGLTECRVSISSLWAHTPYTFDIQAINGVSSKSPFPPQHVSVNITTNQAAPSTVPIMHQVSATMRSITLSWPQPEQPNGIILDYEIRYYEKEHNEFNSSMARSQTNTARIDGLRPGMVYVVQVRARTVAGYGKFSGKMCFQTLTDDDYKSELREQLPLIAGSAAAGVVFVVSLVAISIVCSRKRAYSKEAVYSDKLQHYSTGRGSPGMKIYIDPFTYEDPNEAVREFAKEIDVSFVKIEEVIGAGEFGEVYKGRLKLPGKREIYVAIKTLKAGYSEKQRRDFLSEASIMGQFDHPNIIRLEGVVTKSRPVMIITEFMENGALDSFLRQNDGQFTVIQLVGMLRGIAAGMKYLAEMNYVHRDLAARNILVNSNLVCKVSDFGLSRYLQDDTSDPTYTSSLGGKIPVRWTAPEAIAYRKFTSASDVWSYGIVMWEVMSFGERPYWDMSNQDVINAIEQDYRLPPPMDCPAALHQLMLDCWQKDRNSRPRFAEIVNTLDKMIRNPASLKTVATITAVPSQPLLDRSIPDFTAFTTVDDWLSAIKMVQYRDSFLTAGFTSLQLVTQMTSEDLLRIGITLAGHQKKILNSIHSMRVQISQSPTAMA
METHOD NOTES: phosphorylation enrichment, bacterial display (enrichment ratio); higher = better substrate or ligand; peptides without Tyr show the background;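 further: 11-residue human phosphosite peptides and single-mutation variants displayed on the E. coli surface, counted by deep sequencing, each peptide's frequency after selection divided by its frequency in the unselected input library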;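 further: frequency after pTyr selection over input frequency; kinase dosed for 20-30% of maximal phosphorylation in three min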
Assign class by phosphorylation enrichment: not lower than 0.7 means t; lower than 0.7 means f.

Enquiry: Does the sequence NHFKIHNLCAE [PTEN_Y68_Y68H_YF] have recorded phosphorylation enrichment that is 0.7 or more?
Return: f

Enquiry: Consider next the sequence LPENPYHSRPR [NDUFA8_Y142] in the same way.
Return: f

Enquiry: Consider next the sequence ERSMSYSDESR [SMG1_Y143] in the same way.
Return: f

Enquiry: Consider next the sequence HEKFLYFLPAS [DYNC2H1_Y346] in the same way.
Return: t

Enquiry: Consider next the sequence RTLSEYARRHV [RERE_Y1259_P1262R] in the same way.
Return: f

Enquiry: Consider next the sequence TDLAFYLVRKG [ASL_Y376_YF] in the same way.
Return: f

Enquiry: Consider next the sequence VYSSDYFSFVL [USP24_Y2138] in the same way.
Return: t

Enquiry: Consider next the sequence PSAELYSYALP [PDGFRB_Y716_N718Y] in the same way.
Return: t

Enquiry: Consider next the sequence NKVKFYIPDMN [NCR1_Y84] in the same way.
Return: f

Enquiry: Consider next the sequence EEGRVYVYHLS [ITGAE_Y549_R552H] in the same way.
Return: f

Enquiry: Consider next the sequence ENGPYYTSYPP [GDAP2_Y488] in the same way.
Return: f
